// provenance: patent US9758505B2

Catalogue of molecules with associated pIC50
assayed-system: human TDO2 (Homo sapiens (Human))
test-name: Cellular assay for TDO2 activity, hTDO2-overexpressing P815 cells
Format: cell-based
reported-conditions: murine mastocytoma P815 cells overexpressing hTDO2, overnight incubation, kynurenine in supernatant
pIC50: −log10 of the molar value.
reported-endpoint: pIC50

> print(dat)
                            molecule.smiles  recorded.value
1    Fc1ccc2c(-c3ccc(N4CCOCC4)nc3)c[nH]c2c1            6.68
2  NS(=O)(=O)CCCNc1ccc(-c2c[nH]c3cc(F)ccc23)cn1            6.37
3  CC(=O)N(C)c1ccc(-c2c[nH]c3cc(F)ccc23)cn1            6.31
4  O=C(Nc1ccc(-c2c[nH]c3cc(F)ccc23)cn1)C1CC1            6.92
5  CS(=O)(=O)CCCNc1ccc(-c2c[nH]c3cc(F)ccc23)cn1            6.40
6          CNc1ccc(-c2c[nH]c3cc(F)ccc23)cn1            6.62
7    CN(C)CCNc1ccc(-c2c[nH]c3cc(F)ccc23)cn1            6.85
8              Fc1ccc2c(-c3cccnc3)c[nH]c2c1            7.17
9   Fc1ccc2c(-c3ccc(NC4CCNCC4)nc3)c[nH]c2c1            5.89

---

assayed-system: human TDO2 (Homo sapiens (Human))
test-name: Cellular assay for TDO2 activity, A172 cells naturally expressing hTDO2
Type: cell-based
reported-conditions: human glioblastoma A172 cells, overnight incubation, kynurenine in supernatant
reported-endpoint: IC50 (nM)

> print(dat)
                                   compound  reported.endpoint  recorded.value
1  CN(CCC(N)=O)S(=O)(=O)c1ccc(-c2c[nH]c3cc(F)ccc23)cn1 [Example 101]               IC50             360
2  CC(=O)N1CCC(C(=O)Nc2ccc(-c3c[nH]c4cc(F)ccc34)cn2)CC1 [Example 42]               IC50             520
3  CS(=O)(=O)NCCCC(=O)Nc1ccc(-c2c[nH]c3cc(F)ccc23)cn1 [Example 70]               IC50             720
4  CN(C)CCS(=O)(=O)NC1CCN(c2ccc(-c3c[nH]c4cc(F)ccc34)cn2)CC1 [Example 56]               IC50             640

---

assayed-system: human TDO2 (Homo sapiens (Human), UniProt P48775)
Sequence (P48775 whole entry): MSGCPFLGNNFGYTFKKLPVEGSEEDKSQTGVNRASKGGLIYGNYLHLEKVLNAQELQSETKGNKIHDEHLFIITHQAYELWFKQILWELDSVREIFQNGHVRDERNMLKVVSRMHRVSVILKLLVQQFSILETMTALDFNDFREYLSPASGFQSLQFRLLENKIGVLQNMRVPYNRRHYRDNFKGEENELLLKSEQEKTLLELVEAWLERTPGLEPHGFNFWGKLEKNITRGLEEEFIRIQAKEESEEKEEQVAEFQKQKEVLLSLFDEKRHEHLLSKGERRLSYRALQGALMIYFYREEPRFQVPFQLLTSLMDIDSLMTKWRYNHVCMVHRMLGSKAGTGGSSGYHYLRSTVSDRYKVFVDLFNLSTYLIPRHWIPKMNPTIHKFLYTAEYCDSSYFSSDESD
test-name: Cellular assay for TDO2 activity, hTDO2-overexpressing P815 cells
Type: cell-based
reported-conditions: murine mastocytoma P815 cells overexpressing hTDO2, overnight incubation, kynurenine in supernatant
Returns: string. Value is condition met if measured IC50 is below 200 nM, and condition not met if it is greater than or equal to it.

> print(dat)
                             molecule.smiles        label.value
 1  CS(=O)(=O)NCCCNc1ccc(-c2c[nH]c3cc(F)ccc23)cn1  condition not met
 2       CN(C)c1ccc(-c2c[nH]c3cc(F)ccc23)cn1  condition not met
 3           Nc1ccc(-c2c[nH]c3cc(F)ccc23)cn1      condition met
 4             Cc1ncccc1-c1c[nH]c2cc(F)ccc12  condition not met
 5    NC(=O)CNc1ccc(-c2c[nH]c3cc(F)ccc23)cn1      condition met
 6  CN1CCN(c2ccc(-c3c[nH]c4cc(F)ccc34)cn2)CC1      condition met
 7  NCC(=O)N1CCN(c2ccc(-c3c[nH]c4cc(F)ccc34)cn2)CC1  condition not met
 8  CN(C)CCS(=O)(=O)NC1CCN(c2ccc(-c3c[nH]c4cc(F)ccc34)cn2)CC1  condition not met
 9       O=c1ccc(-c2c[nH]c3cc(F)ccc23)c[nH]1  condition not met
10        OCCNc1ccc(-c2c[nH]c3cc(F)ccc23)cn1      condition met
